# Tested Target: BCRP (ABCG2) (Homo sapiens, UniProt Q9UNQ0)
# Sequence (Q9UNQ0 whole entry): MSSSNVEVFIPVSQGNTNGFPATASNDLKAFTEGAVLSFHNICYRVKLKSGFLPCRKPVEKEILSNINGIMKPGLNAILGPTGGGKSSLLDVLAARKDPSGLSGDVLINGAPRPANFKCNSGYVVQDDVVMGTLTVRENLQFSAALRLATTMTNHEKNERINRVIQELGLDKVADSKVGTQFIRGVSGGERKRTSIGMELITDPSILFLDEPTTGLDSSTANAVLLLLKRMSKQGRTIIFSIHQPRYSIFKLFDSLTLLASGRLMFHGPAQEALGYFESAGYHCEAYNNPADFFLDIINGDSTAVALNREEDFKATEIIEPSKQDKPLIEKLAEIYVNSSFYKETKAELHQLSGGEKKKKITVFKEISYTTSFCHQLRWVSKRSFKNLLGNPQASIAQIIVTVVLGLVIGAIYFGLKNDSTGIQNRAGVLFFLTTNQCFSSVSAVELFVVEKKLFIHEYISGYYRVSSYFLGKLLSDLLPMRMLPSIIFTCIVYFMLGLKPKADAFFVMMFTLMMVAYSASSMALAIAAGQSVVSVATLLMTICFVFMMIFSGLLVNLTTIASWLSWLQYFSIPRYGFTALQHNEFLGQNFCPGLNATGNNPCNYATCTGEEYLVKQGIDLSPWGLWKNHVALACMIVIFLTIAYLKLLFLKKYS
# Test: Inhibition of BCRP (unknown origin) expressed in mouse NIH/3T3 cells assessed as inhibition of mitoxatrone efflux at 10 uM after 1 hr by FACS analysis
# Assay type: cell-based, NIH3T3
# Experimental Setup: NIH/3T3 cells expressing BCRP, probe mitoxantrone (printed: mitoxatrone)
Kindly return Criterion met if reported inhibition at 1 h, 10 µM is no lower than 3%; return Criterion not met if it is lower.

Consider the following illustrative entries.
• O=C[C@H](Cc1ccccc1)N(Cc1ccccc1)C(=O)N(Cc1ccccc1)N1CCCCC1 = Criterion met
• COc1cccc(CN(C(=O)N[C@H](C=O)Cc2ccccc2)N2CCCCC2)c1 = Criterion met
• O=C[C@H](Cc1ccccc1)NC(=O)N(Cc1ccccc1)N1CCOCC1 = Criterion met
• O=C[C@H](Cc1ccc(O)cc1)NC(=O)N(Cc1ccccc1)N1CCCCC1 = Criterion not met

*Q* # bool: inhibition at 1 h, 10 µM of CN(C)N(Cc1ccccc1)C(=O)N[C@H](C=O)Cc1ccccc1 >= 3%
*A* Criterion met

*Q* # bool: inhibition at 1 h, 10 µM of O=C[C@H](Cc1ccccc1)NC(=O)N(Cc1ccccc1)N1CCCCC1 >= 3%
*A* Criterion not met

*Q* # bool: inhibition at 1 h, 10 µM of O=C[C@H](Cc1ccccc1)NC(=O)N(Cc1cccc(O)c1)N1CCCCC1 >= 3%
*A* Criterion met

----------
# Test: Cytotoxicity against human HEK293 cells expressing BCRP assessed as cell survival after 72 hrs by MTT assay
Observed Property: IC50 at 72 h (µM)
Numeric only. Scale: µM

Reference set (3 entries):
- COc1cccc(CN(C(=O)N[C@H](C=O)Cc2ccccc2)N2CCCCC2)c1: 37.2
- CN(C)N(Cc1ccccc1)C(=O)N[C@H](C=O)Cc1ccccc1: 57.2
- O=C[C@H](Cc1ccccc1)NC(=O)N(Cc1cccc(O)c1)N1CCCCC1: 23.1

Summary for this compound, O=C[C@H](Cc1ccccc1)NC(=O)N(Cc1ccccc1)N1CCCCC1 : IC50 at 72 h is 34.8

Summary for this compound, O=C[C@H](Cc1ccc(O)cc1)NC(=O)N(Cc1ccccc1)N1CCCCC1 : IC50 at 72 h is 47.9

----------
# Test: Cytotoxicity against mouse NIH/3T3 cells assessed as cell survival after 72 hrs by MTT assay
Observed Property: IC50 at 72 h (µM)
Numeric only. Scale: µM

Summary for this molecule, O=C[C@H](Cc1ccccc1)N(Cc1ccccc1)C(=O)N(Cc1ccccc1)N1CCCCC1 : IC50 at 72 h is 11.2
